- Test system: E. faecium ATCC 19434
- assayProtocol: MIC, CLSI broth microdilution (Table 1)
- Format: cell-based
- assayContext: Enterococcus faecium, ATCC19434; Gram positive; MHB, 37° C., 16-20 hours; read-out: MIC E. faecium ATCC 19434
Counter-ions that a name gives are not always drawn.
valueType: MIC

Consider the following illustrative entries.
compound: Cc1c(N2CC[C@H](N)C2)ccn2c(=O)c(C(=O)O)cc(C3CC3)c12 [Example 27 K salt]
valueType: MIC
experimentalResult: > 8 µg/mL
//
compound: CNc1ccc(-c2ccn3c(=O)c(C(=O)O)cc(C4CC4)c3c2C)cc1 [Example 15 K salt]
valueType: MIC
experimentalResult: > 8 µg/mL
//
compound: Cc1cc(-c2ccn3c(=O)c(C(=O)O)cc(C4CC4)c3c2C)c(Cl)cc1N [Example 30 K salt]
valueType: MIC
experimentalResult: 2 µg/mL

Please turn your attention to the following entry.
Req: Entry Cc1c(-c2ccc(C(=O)O)cc2)ccn2c(=O)c(C(=O)O)cc(C3CC3)c12 [Example 37 K salt] : reported MIC = ?
Resp: > 8 µg/mL

====

- Test system: A. baumannii ATCC 19606
- assayProtocol: MIC, CLSI broth microdilution (Table 2)
- Assay type: cell-based
- assayContext: Acinetobacter baumannii, ATCC19606, read-out: MIC A. baumannii B. ATCC 19606
Where a name gives a salt, the structure may show the parent alone.
Listed next: entries and their corresponding MIC.

Known MIC results, listed for orientation:
molecule: Cc1c(-c2ccc(CN)cc2)ccn2c(=O)c(C(=O)O)cc(C3CC3)c12 [Example 31 K salt]
experimentalResult: 0.25 µg/mL
--
molecule: Cc1c(-c2ccc(N)cc2)c(F)cn2c(=O)c(C(=O)O)cc(C3CC3)c12 [Example 5 K salt]
experimentalResult: 0.064 µg/mL

Req: Hi! What's the reported MIC for Cc1c(-c2ccc(F)c(N)c2)ccn2c(=O)c(C(=O)O)cc(C3CC3)c12 [Example 8 K salt] on A. baumannii ATCC 19606?
Resp: 0.064 to 0.125 µg/mL

Req: Look up MIC with A. baumannii ATCC 19606 for this molecule: Cc1c(-c2ccc(N)c(F)c2)c(F)cn2c(=O)c(C(=O)O)cc(C3CC3)c12 [Example 1 K salt]
Resp: 0.064 µg/mL

Req: Observed MIC on A. baumannii ATCC 19606 for Cc1c(-c2ccc(C(N)=O)cc2)c(F)cn2c(=O)c(C(=O)O)cc(C3CC3)c12 [Example 6 K salt] , please.
Resp: 0.5 µg/mL

Req: Return MIC measured with A. baumannii ATCC 19606 given this molecule: Cc1c(-c2cc(F)c(N)cc2F)ccn2c(=O)c(C(=O)O)cc(C3CC3)c12 [Example 28 K salt]
Resp: 0.125 µg/mL

====

- Tested on: S. aureus ATCC 43300 (MRSA, FQ-S)
- assayProtocol: MIC, CLSI broth microdilution (Table 1)
- Format: cell-based
- assayContext: Staphylococcus aureus; Gram positive; MHB, 37° C., 16-20 hours; read-out: MIC S. aureus ATCC 43300 (MRSA, FQ-S)
Counter-ions that a name gives are not always drawn.
Reported MIC values for the following molecules.
Numbers only; they are read as µg/mL.

Req: Write down the reported MIC of Cc1c(-c2ccc(F)c(N)c2)ccn2c(=O)c(C(=O)O)cc(C3CC3)c12 [Example 8 K salt] , test system: S. aureus ATCC 43300 (MRSA, FQ-S).
Resp: 0.008

Req: Hi! What's the reported MIC for Cc1c(-c2ccc(N(C)C)cc2)ccn2c(=O)c(C(=O)O)cc(C3CC3)c12 [Example 25 K salt] on S. aureus ATCC 43300 (MRSA, FQ-S)?
Resp: 0.064

Req: Notebook entry, S. aureus ATCC 43300 (MRSA, FQ-S) assay: MIC of COc1cc(-c2ccn3c(=O)c(C(=O)O)cc(C4CC4)c3c2C)ccc1N [Example 12 K salt] = ?
Resp: 0.016

Req: Identify the measured MIC of Cc1c(-c2ccc(C#N)c(F)c2)ccn2c(=O)c(C(=O)O)cc(C3CC3)c12 [Example 40 K salt] for S. aureus ATCC 43300 (MRSA, FQ-S).
Resp: 0.016

Req: What measured MIC is associated with Cc1c(-c2ccc(N)cc2F)ccn2c(=O)c(C(=O)O)cc(C3CC3)c12 [Example 7 K salt] on S. aureus ATCC 43300 (MRSA, FQ-S)?
Resp: 0.008

====

- System: E. faecalis ATCC 29212
- assayProtocol: MIC, CLSI broth microdilution (Table 1)
- Format: cell-based
- assayContext: Enterococcus faecalis, ATCC29212; Gram positive; MHB, 37° C., 16-20 hours; read-out: MIC E. faecalis ATCC 29212
Where a name gives a salt, the structure may show the parent alone.
MIC listing for selected molecules.
Express the result in µg/mL but write the number alone.

Observe how each entry below is paired with its result.
molecule: Cc1c(-c2ccc3[nH]ccc3c2)ccn2c(=O)c(C(=O)O)cc(C3CC3)c12 [Example 22 K salt]
MIC, µg/mL: 0.032
//
molecule: Cc1c(N2CC[C@H](N)C2)c(F)cn2c(=O)c(C(=O)O)cc(C3CC3)c12 [Example 26 K salt]
MIC, µg/mL: 0.125
//
molecule: Cc1c(N2CCNCC2)ccn2c(=O)c(C(=O)O)cc(C3CC3)c12 [Example 34 K salt]
MIC, µg/mL: 4

From here, focus on the item given below.
Req: If you can, please state the reported MIC value of Cc1c(-c2ccc(N)cc2)ccn2c(=O)c(C(=O)O)cc(C3CC3)c12 [Example 18 K salt] .
Resp: 0.032

====

- Test system: E. faecium ATCC 19434
- assayProtocol: MIC, CLSI broth microdilution (Table 1)
- Type: cell-based
- assayContext: Enterococcus faecium, ATCC19434; Gram positive; MHB, 37° C., 16-20 hours; read-out: MIC E. faecium ATCC 19434
Where a name gives a salt, the structure may show the parent alone.
valueType: MIC

For orientation, consider the following solved cases.
compound: Cc1ccc(-c2ccn3c(=O)c(C(=O)O)cc(C4CC4)c3c2C)cc1 [Example 33 K salt]
MIC: 0.5 to 1 mg/L
//
compound: Cc1c(-c2ccc(C(=O)O)cc2)c(F)cn2c(=O)c(C(=O)O)cc(C3CC3)c12 [Example 41 K salt]
MIC: > 8 mg/L

Now look at this one.
Req: Tell me the measured MIC of Cc1c(-c2ccc(Cl)cc2)ccn2c(=O)c(C(=O)O)cc(C3CC3)c12 [Example 45 K salt] , please.
Resp: 0.5 to 1 mg/L

====

Let's look at some compounds and their measured MIC.
- Test system: K. pneumoniae ATCC 33495
- assayProtocol: MIC, CLSI broth microdilution (Table 2)
- Type: cell-based
- assayContext: Klebsiella pneumoniae, ATCC33495; Gram negative; MHB, 37° C., 16-20 hours; read-out: MIC K. pneumoniae ATCC 33495
Structures can show the parent of a compound that is named as a salt.
Enter your answer as a number in µg/mL; do not include the unit.

compound: C[C@H]1COc2c(N3CCN(C)CC3)c(F)cc3c(=O)c(C(=O)O)cn1c23 [Levofloxacin]
displayUnit: µg/mL
experimentalResult: 0.032

Req: Endpoint output: MIC of Cc1c(N2CC[C@H](N)C2)ccn2c(=O)c(C(=O)O)cc(C3CC3)c12 [Example 27 K salt] . Value?
Resp: 0.25

Req: Could you share which MIC value was measured for CNc1ccc(-c2ccn3c(=O)c(C(=O)O)cc(C4CC4)c3c2C)cc1 [Example 15 K salt] ?
Resp: 1

Req: // query MIC value for entry Cc1c(-c2ccc(N(C)C)cc2)ccn2c(=O)c(C(=O)O)cc(C3CC3)c12 [Example 25 K salt]
Resp: 1

Req: Which MIC reading was recorded for the compound Cc1c(-c2ccc(CO)cc2)ccn2c(=O)c(C(=O)O)cc(C3CC3)c12 [Example 48 K salt] ?
Resp: 0.25

Req: Any idea what its MIC is? The compound is Cc1c(-c2ccc(N)c(Cl)c2)ccn2c(=O)c(C(=O)O)cc(C3CC3)c12 [Example 11 K salt]
Resp: 0.125

====

- Tested on: P. aeruginosa ATCC 27853
- assayProtocol: MIC, CLSI broth microdilution (Table 2)
- Type: cell-based
- assayContext: Pseudomonas aeruginosa, ATCC27853; Gram negative; MHB, 37° C., 16-20 hours; read-out: MIC P. aeruginosa ATCC 27853
Counter-ions that a name gives are not always drawn.
valueType: MIC (µg/mL)
I only need the number, in µg/mL, no unit after it.

Illustrative cases are given below, each with its answer.
molecule: Cc1c(-c2cccc(N)c2)ccn2c(=O)c(C(=O)O)cc(C3CC3)c12 [Example 3 K salt]
measuredOn: P. aeruginosa ATCC 27853
displayUnit: µg/mL
MIC: 2

molecule: Cc1cc(-c2ccn3c(=O)c(C(=O)O)cc(C4CC4)c3c2C)ccc1N [Example 19 K salt]
measuredOn: P. aeruginosa ATCC 27853
displayUnit: µg/mL
MIC: 2

molecule: Cc1c(N2CCC[C@H](N)C2)ccn2c(=O)c(C(=O)O)cc(C3CC3)c12 [Example 35 K salt]
measuredOn: P. aeruginosa ATCC 27853
displayUnit: µg/mL
MIC: 0.5

molecule: Cc1c(-c2ccc(CO)cc2)ccn2c(=O)c(C(=O)O)cc(C3CC3)c12 [Example 48 K salt]
measuredOn: P. aeruginosa ATCC 27853
displayUnit: µg/mL
MIC: 2

molecule: Cc1c(-c2ccc(N)c(Cl)c2)ccn2c(=O)c(C(=O)O)cc(C3CC3)c12 [Example 11 K salt]
measuredOn: P. aeruginosa ATCC 27853
displayUnit: µg/mL
MIC: 2

Req: Please tell me: MIC of Cc1c(-c2ccc(F)cc2)ccn2c(=O)c(C(=O)O)cc(C3CC3)c12 [Example 44 K salt] , system P. aeruginosa ATCC 27853?
Resp: 2

Req: API: value(readout= MIC, system= P. aeruginosa ATCC 27853, query= Cc1c(-c2ccc(N)cc2)ccn2c(=O)c(C(=O)O)cc(C3CC3)c12 [Example 18 K salt] )
Resp: 1
